test system: gluten-reactive T cells; experiment: 96-well plate whole blood cytokine release, IP-10 by MAGPIX multiplex bead assay; type: cell-based, human; conditions: Subject 4; after oral gluten challenge; Max. 9463 pg/mL
Non-standard residues stand in square brackets, D forms with d. pGlu = O=C1CC[C@@H](C(=O)O)N1
observation-type: Percent of maximal response to individual gluten peptides, IP-10

[Q] Percent of maximal response to individual gluten peptides, IP-10 of (pE)QPYPQPELPYPQPQ-amide ([pGlu]QPYPQPELPYPQPQ-NH2; SMILES CC(C)C[C@H](NC(=O)[C@H](CCC(=O)O)NC(=O)[C@@H]1CCCN1C(=O)[C@H](CCC(N)=O)NC(=O)[C@@H]1CCCN1C(=O)[C@H](Cc1ccc(O)cc1)NC(=O)[C@@H]1CCCN1C(=O)[C@H](CCC(N)=O)NC(=O)[C@@H]1CCC(=O)N1)C(=O)N1CCC[C@H]1C(=O)N[C@@H](Cc1ccc(O)cc1)C(=O)N1CCC[C@H]1C(=O)N[C@@H](CCC(N)=O)C(=O)N1CCC[C@H]1C(=O)N[C@@H](CCC(N)=O)C(N)=O) [Peptide 15] on gluten-reactive T cells?
[A] 67 % of max
